- METHOD: NCI Yeast Anticancer Drug Screen. Data for the bub3 strain (AID 167)
- SETUP_CONDITIONS: S. cerevisiae bub3 mutant strain, at 50.0 µM (retest, dose inferred, filed as 5.0), stronger effect = higher value
About 79,000 compounds went through this panel and 15% of them were active in at least one assay; those are over-represented in the sample as a whole.
RECORDED_ENDPOINT: growth inhibition (%)

>>> print(df.to_string())
                                    molecule  recorded_endpoint  value
 0                                C=CCOCCC=O  growth inhibition     -3
 1             Clc1nc(Cl)c(Cl)c(-c2ccccc2)n1  growth inhibition     86
 2  CCOC(=O)C1=C(Nc2ccc(Cl)c(Cl)c2)OC/C1=N\NS(=O)(=O)c1ccc(C)cc1  growth inhibition     15
 3       CC(C)c1ccc(O)c(Cc2cc(C(C)C)ccc2O)c1  growth inhibition     99
 4  CCN(CC)P(=S)(c1ccccc1CCP(=S)(c1ccccc1)c1ccccc1)N(CC)CC  growth inhibition     41
 5  N#CN1CCCC(O)c2sc3ccccc3c2CC1 (configuration not stated)  growth inhibition      1
 6              CNc1ccc(F)cc1SSc1cc(F)ccc1NC  growth inhibition     99
 7  Cc1cc(Cl)ccc1N1C(=O)C(=O)C(c2nc3ccccc3o2)C(=O)C1=O  growth inhibition     96
 8  Cc1cc(Cl)c(O)c(C(=O)C(=O)C(O)c2ccc3c(c2)OCO3)c1 (configuration not stated)  growth inhibition     94
 9  Cc1cc(NS(=O)(=O)c2ccc(NCc3c4ccccc4nc4cc(Cl)ccc34)cc2)no1  growth inhibition     99
10                  CC(C)SC(=S)Nc1ccc(Cl)cc1  growth inhibition     91
11           O=C(Oc1ccc(Cl)cc1)Oc1ccc(Cl)cc1  growth inhibition    -23

----------
- METHOD: NCI Yeast Anticancer Drug Screen. Data for the cln2 rad14 strain (AID 165);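 note: 0% = growth equal to vehicle treated cultures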
- SETUP_CONDITIONS: S. cerevisiae cln2 rad14 strain, at 50.0 µM, stronger effect = higher value
This is part of a sample that, as a whole, favours compounds with a hit. Of some 79,000 tested, about 15% had one in any assay.
Label Yes when growth inhibition >= 90%; otherwise No.

>>> print(df.to_string())
                                   molecule  category_label
0  ClC1c2ccccc2Cc2cccnc21 (stereo unspecified)              No
1  O=C1c2cccc(O)c2C(=O)c2c(OC3OC(CO)C(O)C(O)C3O)cccc21 (stereo unspecified)              No
2  CC1CC(OC(=O)Nc2ccccc2)CC(C)(C)C1 (stereo unspecified)              No
3  COc1ccc(C2c3cc4c(cc3OC(O)C2C)OCO4)cc1 (stereo unspecified)             Yes
4  CCCCCCCCCCCCCCCCCC[N+](C)(C)Cc1ccc(C[N+](C)(C)CCCCCCCCCCCCCCCCCC)cc1              No
5  CC(C)C12CCC3(CCC4C(C)(C(=O)O)CCCC4(C)C3C1)C(CN)C2 (stereo unspecified)             Yes
6              CCCCN(CCCC)S(=O)(=O)c1ccccc1              No
7                   O=C(O)Cc1c[nH]c2ccccc12              No
